Task for the reader: assign each of the following compounds its reported Antibiotic MIC + RW01 100 mg/L.
Test system: P. aeruginosa PAOΔoprM
Assay: MIC, CLSI broth microdilution in BD Phoenix AST Broth
Assay type: cell-based, Pseudomonas aeruginosa
Conditions: strain PAOΔoprM; MIC of the antibiotic with fixed 100 mg/L RW01
Protocol: MIC for RW01 was also tested. FIC of RW01 (FICRW01)=MIC of RW01 in combination/MIC of RW01 alone,FIC of antibiotic (FICATB)=MIC of ATB in combination/MIC of ATB alone,FICI=FICRW01 +FICATB. FICI was interpreted as follows: synergistic effect if FICI is ≤0.5; additive effect if 0.5 < FICI ≤ 1.0; indifferent effect if 1.0 < FICI ≤ 2.0; and finally, antagonistic effect if FICI is >2.0. […]
Answers are plain numbers, in µg/mL.

// known answers, use as guide
{"compound": "C[C@H]1c2cccc(O)c2C(=O)C2=C(O)[C@]3(O)C(=O)C(C(N)=O)=C(O)[C@@H](N(C)C)[C@@H]3[C@@H](O)[C@@H]21 [Doxycycline, doxycycline]", "recorded_metric": "Antibiotic MIC + RW01 100 mg/L", "experimental_result": 0.125}
{"compound": "CN(C)[C@@H]1C(O)=C(C(N)=O)C(=O)[C@@]2(O)C(O)=C3C(=O)c4c(O)cccc4[C@@](C)(O)[C@H]3C[C@@H]12 [Tetracycline, tetracycline]", "recorded_metric": "Antibiotic MIC + RW01 100 mg/L", "experimental_result": 0.5}
{"compound": "CN(C)c1ccc(O)c2c1C[C@H]1C[C@H]3[C@H](N(C)C)C(O)=C(C(N)=O)C(=O)[C@@]3(O)C(O)=C1C2=O [Minocycline, minocycline]", "recorded_metric": "Antibiotic MIC + RW01 100 mg/L", "experimental_result": 0.5}

// Antibiotic MIC + RW01 100 mg/L lookup, key: CN(C)c1cc(NC(=O)CNC(C)(C)C)c(O)c2c1C[C@H]1C[C@H]3[C@H](N(C)C)C(O)=C(C(N)=O)C(=O)[C@@]3(O)C(O)=C1C2=O [Tigecycline, tigecycline]
1
